Test system: Heat shock protein HSP 90 (rabbit reticulocyte lysate; luciferase refolding)
Experiment: HSP90 inhibitors, primary screen, cell lysate, luminescence (AID 1789);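 note: 0% = DMSO wells and 100% = 60 µM geldanamycin wells; inhibitors lower the luminescence because luciferase stays unfolded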
Conditions: 3 h, at 5.6 µM, active compounds read high
In all, about 290,000 compounds went through this assay and about 2,700 (0.93%) were called active. The entries come from a sample that favours actives as a whole.
measured.endpoint: inhibition

[
  {
    "structure.string": "CC(C)CC[n+]1ccn(C2=C([O-])c3ccccc3C(=O)/C2=N\\S(=O)(=O)c2ccccc2)c1",
    "target": "Heat shock protein HSP 90 (rabbit reticulocyte lysate; luciferase refolding)",
    "inhibition": "6.11% (inactive)"
  },
  {
    "structure.string": "COc1ccc(OC)c(NC(=O)c2ccc3c(c2)CCN3S(C)(=O)=O)c1",
    "target": "Heat shock protein HSP 90 (rabbit reticulocyte lysate; luciferase refolding)",
    "inhibition": "-4.49% (inactive)"
  },
  {
    "structure.string": "COc1cccc(C(=O)N/N=C(\\C)c2cccc(NC(=O)c3ccc(F)cc3)c2)c1OC",
    "target": "Heat shock protein HSP 90 (rabbit reticulocyte lysate; luciferase refolding)",
    "inhibition": "-0.84% (inactive)"
  }
]

Please examine the following record next.
*Q* Tell us which inhibition value is on record for CCOC(=O)c1sc(NC(=O)c2sc(C)nc2C)nc1C
*A* 9.21% (inactive)

====

Item-by-item account of inhibition
System: Heat shock protein HSP 90 (rabbit reticulocyte lysate; luciferase refolding)
Test: HSP90 inhibitors, primary screen, cell lysate, luminescence (AID 1789);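 note: 0% = DMSO wells and 100% = 60 µM geldanamycin wells; inhibitors lower the luminescence because luciferase stays unfolded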
Conditions: 3 h, at 5.6 µM, active compounds read high
The campaign covered roughly 290,000 compounds. About 2,700 (0.93%) were called active. What follows is part of a selection rich in actives, with near analogues and random picks from the rest.
Reply numerically in %, unit not repeated.

# count of solved cases: 10
[
  {
    "compound": "Cc1cccc(NC(=O)c2ccc(COc3ccccc3[N+](=O)[O-])o2)n1",
    "inhibition [%]": -1.06
  },
  {
    "compound": "O=c1oc(-c2ccccc2NS(=O)(=O)c2ccc(Cl)cc2)nc2ccccc12",
    "inhibition [%]": 0.82
  },
  {
    "compound": "CC(NC(=O)COc1ccccc1)C(=O)NC1=NCCS1 (centres undefined)",
    "inhibition [%]": -0.56
  },
  {
    "compound": "C=CCSc1nsc(NC(=O)Nc2cccc(C(C)=O)c2)n1",
    "inhibition [%]": -1.06
  },
  {
    "compound": "Cc1cc(=O)oc2cc(OCC(=O)N3CCN(c4ccc(F)cc4)CC3)c(Cl)cc12",
    "inhibition [%]": 0.58
  },
  {
    "compound": "COc1cc2c(cc1OC)C(c1ccccc1Br)NC(=O)C2 (centres undefined)",
    "inhibition [%]": -0.82
  },
  {
    "compound": "O=C(CN1C(=O)COc2ccc(Cl)cc21)N1CCOCC1",
    "inhibition [%]": 4.17
  },
  {
    "compound": "COc1ccccc1CNC(=O)[C@@H]1CCCN1C(=O)[C@@H]1Cc2ccccc2CN1C(=O)OC(C)(C)C",
    "inhibition [%]": 0.82
  },
  {
    "compound": "CCOC(=O)C1=C(c2ccccc2)NC(=S)NC1c1ccc(Cl)cc1 (centres undefined)",
    "inhibition [%]": 2.24
  },
  {
    "compound": "CN(CCO)c1ccc(/C=N/Nc2nncc3ccccc23)cc1",
    "inhibition [%]": 58.9
  }
]

*Q* Supply inhibition value. Item: CC(NCc1cccs1)C(=O)Nc1cc(Cl)cc(Cl)c1 (centres undefined)
*A* 3.33

*Q* Give a short answer stating reported inhibition for Brc1ccc2nc(N3CCCC3)sc2c1 .
*A* 7.29

*Q* Complete the entry with inhibition for CCOc1ccccc1NS(=O)(=O)c1c[nH]c(C(=O)OC)c1
*A* -0.36

*Q* Input COc1ccc(CCNC(=O)C(=O)NCC2OCCN2S(=O)(=O)c2ccc(OC)c(C)c2)cc1 (centres undefined) , output reported inhibition.
*A* 3.33

*Q* Answer with the recorded inhibition of CCOC(=O)CSc1nc2ccc(C)cc2[nH]1 only.
*A* 1.44

*Q* Return value of inhibition for input COc1ccc(Cc2cc(-c3ccc(F)cc3)n[nH]c2=O)cc1 , no commentary.
*A* -1.15
